src = patent EP2570413A1

# assay-method-text: Metabolic stability, human; note: time not given here
# Type: in vitro ADME
# measurement-context: Human; test compound 1 µM in NADP (1.3 mM), G6P 3.3 mM, G6PDHase, DMSO
Assign labels as follows, please: Condition met for Metabolic Stability Human below 50%; Condition not met for Metabolic Stability Human equal to or exceeding 50%.

>>> df
                                   molecule              class
0  O=c1nc(N2CCC(c3ccccc3F)CC2)sc2c([N+](=O)[O-])cc(C(F)(F)F)cc12 [Compound 8]  Condition not met
1  O=c1nc(N2CCC(Cc3ccccc3)CC2)sc2c([N+](=O)[O-])cc(C(F)(F)F)cc12 [Compound 6]      Condition met
2  Cc1cccc(C2CCN(c3nc(=O)c4cc(C(F)(F)F)cc([N+](=O)[O-])c4s3)CC2)c1 [Compound 7]      Condition met

# input Consider the molecule O=c1nc(N2CCC(c3ccc(Cl)cc3)CC2)sc2c([N+](=O)[O-])cc(C(F)(F)F)cc12 [Compound 2] . Is its Metabolic Stability Human strictly less than 50%?
# output Condition not met

# input Consider the molecule Cc1ccc(C2CCN(c3nc(=O)c4cc(C(F)(F)F)cc([N+](=O)[O-])c4s3)CC2)cc1 [Compound 3] . Is its Metabolic Stability Human strictly less than 50%?
# output Condition met

# input Consider the molecule O=c1nc(N2CCC(c3cccc(F)c3)CC2)sc2c([N+](=O)[O-])cc(C(F)(F)F)cc12 [Compound 4] . Is its Metabolic Stability Human strictly less than 50%?
# output Condition met

# input Consider the molecule O=c1nc(N2CCC(c3ccccc3)CC2)sc2c([N+](=O)[O-])cc(C(F)(F)F)cc12 [Compound 1] . Is its Metabolic Stability Human strictly less than 50%?
# output Condition not met
